Value source: ChEMBL document CHEMBL3352786

test: Equilibrium solubility of the compound at pH 6.8; type: physicochemical; details: buffer
experimental_endpoint: solubility thermodynamic (µM)

a = COc1ccc(C(=O)NCC(=O)NCC#N)cc1C(=O)C(C)(C)c1cc(Cl)cc(Cl)c1
b = CN(C)CCOc1ccc(C(=O)NCc2ccnc(C#N)n2)cc1C(=O)C(C)(C)c1cc(Cl)cc(Cl)c1
When the recorded solubility thermodynamic values are compared, which is smaller: that of a or that of b ? Please identify the chosen entry by its label.
a
(a: 50 µM, b: 490 µM)

###

Dipeptidyl peptidase 1 (Homo sapiens, UniProt P53634) data, read-out IC50
Sequence (P53634 25-134 limits assumed): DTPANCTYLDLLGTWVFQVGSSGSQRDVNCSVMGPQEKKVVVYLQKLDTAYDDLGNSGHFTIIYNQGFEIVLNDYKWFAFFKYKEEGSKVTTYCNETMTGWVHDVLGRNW
Sequence (P53634 231-394 limits assumed): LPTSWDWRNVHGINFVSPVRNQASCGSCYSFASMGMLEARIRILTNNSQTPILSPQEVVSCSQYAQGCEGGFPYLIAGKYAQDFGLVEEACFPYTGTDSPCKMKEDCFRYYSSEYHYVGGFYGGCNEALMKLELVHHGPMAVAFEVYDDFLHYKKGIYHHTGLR
Sequence (P53634 395-463 limits assumed): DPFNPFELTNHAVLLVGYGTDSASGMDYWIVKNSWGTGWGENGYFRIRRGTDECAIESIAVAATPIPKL

Please review the entries below; each comes with its answer.
COc1ccc(C(=O)NCC(=O)NC/C=C/S(C)(=O)=O)cc1C(=O)C(C)(C)c1cc(Cl)cc(Cl)c1 > 100 µM
CCN[C@H](C(=O)N[C@H](C(=O)NCC(=O)NC/C=C/S(C)(=O)=O)C(C)(C)C)c1cc(Cl)cc(Cl)c1 > 100 µM
CC(C)(C)[C@H](NC(=O)Cc1cc(Cl)cc(Cl)c1)C(=O)NCC(=O)NC/C=C/S(C)(=O)=O > 100 µM
CN(C)CCOc1ccc(C(=O)NCc2ccnc(C#N)n2)cc1C(=O)C(C)(C)c1cc(Cl)cc(Cl)c1 18 µM

Which IC50 is listed for `COc1ccc(C(=O)NCC(=O)NCC#N)cc1C(=O)C(C)(C)c1cc(Cl)cc(Cl)c1` ?
> 100 µM

Fill in the blank: the reported IC50 of `CC[C@H](C(=O)N[C@H]1CCN(CC(=O)NC/C=C/S(C)(=O)=O)C1=O)c1cc(Cl)cc(Cl)c1` is ____.
> 100 µM

###

biological target: UniProt P07711
Sequence (P07711 whole entry): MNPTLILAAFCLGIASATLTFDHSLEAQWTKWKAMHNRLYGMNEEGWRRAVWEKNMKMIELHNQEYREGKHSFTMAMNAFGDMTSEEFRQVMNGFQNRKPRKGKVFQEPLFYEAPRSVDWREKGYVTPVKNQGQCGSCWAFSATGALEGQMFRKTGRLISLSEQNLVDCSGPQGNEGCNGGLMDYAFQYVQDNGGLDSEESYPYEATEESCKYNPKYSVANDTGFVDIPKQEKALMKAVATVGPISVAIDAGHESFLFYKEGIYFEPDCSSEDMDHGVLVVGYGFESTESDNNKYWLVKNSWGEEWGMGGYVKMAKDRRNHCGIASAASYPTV
experimental_endpoint: IC50 (µM)

A = CN(C)CCOc1ccc(C(=O)NCC(=O)NCC#N)cc1C(=O)C(C)(C)c1cc(Cl)cc(Cl)c1
B = COc1ccc(C(=O)NCc2ccnc(C#N)n2)cc1C(=O)C(C)(C)c1cc(Cl)cc(Cl)c1
Which is greater in IC50, the first item A or the second item B ? Your answer should be the label attached to the chosen record.
A

###

target: Cathepsin S (Homo sapiens, UniProt P25774)
Sequence (P25774 whole entry): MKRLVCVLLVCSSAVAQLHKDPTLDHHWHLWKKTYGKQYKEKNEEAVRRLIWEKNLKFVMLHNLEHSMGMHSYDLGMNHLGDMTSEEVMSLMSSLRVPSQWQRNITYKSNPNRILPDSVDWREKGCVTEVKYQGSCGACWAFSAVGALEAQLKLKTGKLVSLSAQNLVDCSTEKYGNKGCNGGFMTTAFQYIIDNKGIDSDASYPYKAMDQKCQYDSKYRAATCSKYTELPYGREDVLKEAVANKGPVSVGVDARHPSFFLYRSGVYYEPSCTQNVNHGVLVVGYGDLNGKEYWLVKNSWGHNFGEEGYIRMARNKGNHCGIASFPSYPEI
pIC50: −log10 of the molar value.
experimental_endpoint: pIC50

a = CN(C)CCOc1ccc(C(=O)NCc2ccnc(C#N)n2)cc1C(=O)C(C)(C)c1cc(Cl)cc(Cl)c1
b = COc1ccc(C(=O)NCc2ccnc(C#N)n2)cc1C(=O)C(C)(C)c1cc(Cl)cc(Cl)c1
Lab note: check whether a or b has the lower measured pIC50. // respond with label for picked entry
a

###

experiment: Permeability of the compound by PAMPA; format: ADME
experimental_endpoint: logPm

COc1ccc(C(=O)NCC(=O)NC/C=C/S(C)(=O)=O)cc1C(=O)C(C)(C)c1cc(Cl)cc(Cl)c1 -4.1
COc1ccc(C(=O)NCC(=O)NCC#N)cc1C(=O)C(C)(C)c1cc(Cl)cc(Cl)c1 -5
CC[C@H](C(=O)N[C@H]1CCN(CC(=O)NC/C=C/S(C)(=O)=O)C1=O)c1cc(Cl)cc(Cl)c1 -5.5

###

Notes on pIC50 obtained with Cathepsin B (Homo sapiens, UniProt P07858).
pIC50: −log10 of the molar value.

COc1ccc(C(=O)NCC(=O)NC/C=C/S(C)(=O)=O)cc1C(=O)C(C)(C)c1cc(Cl)cc(Cl)c1 < 4.00

Lab note: need pIC50 with Cathepsin B (Homo sapiens, UniProt P07858) for entry `CC(C)(C)[C@H](NC(=O)Cc1cc(Cl)cc(Cl)c1)C(=O)NCC(=O)NC/C=C/S(C)(=O)=O` , please look it up.
< 4.00

Enter reported pIC50 observed with Cathepsin B (Homo sapiens, UniProt P07858) for `CC[C@H](C(=O)N[C@H]1CCN(CC(=O)NC/C=C/S(C)(=O)=O)C1=O)c1cc(Cl)cc(Cl)c1`
< 4.00

###

experiment: Permeability of the compound by PAMPA; format: ADME
experimental_endpoint: logPm

CN(C)CCOc1ccc(C(=O)NCC(=O)NCC#N)cc1C(=O)C(C)(C)c1cc(Cl)cc(Cl)c1 -5.5
CN(C)CCOc1ccc(C(=O)NCc2ccnc(C#N)n2)cc1C(=O)C(C)(C)c1cc(Cl)cc(Cl)c1 -4.2
CS(=O)(=O)N[C@H](C(=O)N[C@@H](Cc1ccccc1)C(=O)NCC(=O)NCC#N)c1cccc(Cl)c1 -5.6
CC(C)(C)[C@H](NC(=O)Cc1cc(Cl)cc(Cl)c1)C(=O)NCC(=O)NC/C=C/S(C)(=O)=O -5.6

###

Target: Cathepsin K (Homo sapiens)
Sequence (P43235 whole entry): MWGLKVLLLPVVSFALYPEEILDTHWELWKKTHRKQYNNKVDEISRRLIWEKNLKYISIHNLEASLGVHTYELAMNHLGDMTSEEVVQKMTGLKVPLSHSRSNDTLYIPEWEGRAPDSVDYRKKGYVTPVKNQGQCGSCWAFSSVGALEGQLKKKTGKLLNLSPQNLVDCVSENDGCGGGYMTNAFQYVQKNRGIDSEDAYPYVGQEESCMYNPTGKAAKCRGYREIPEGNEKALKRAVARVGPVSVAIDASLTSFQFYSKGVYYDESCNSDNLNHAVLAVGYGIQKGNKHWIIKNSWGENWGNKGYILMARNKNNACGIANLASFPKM
# reported IC50; entries follow

Worked cases, IC50 given:
COc1ccc(C(=O)NCC(=O)NCC#N)cc1C(=O)C(C)(C)c1cc(Cl)cc(Cl)c1 > 100 µM
CN(C)CCOc1ccc(C(=O)NCC(=O)NCC#N)cc1C(=O)C(C)(C)c1cc(Cl)cc(Cl)c1 > 100 µM

Checklist item: IC50 tested on Cathepsin K (Homo sapiens), entry `CCN[C@H](C(=O)N[C@H](C(=O)NCC(=O)NC/C=C/S(C)(=O)=O)C(C)(C)C)c1cc(Cl)cc(Cl)c1` , value?
73 µM

Which measured IC50 belongs to `COc1ccc(C(=O)NCC(=O)NC/C=C/S(C)(=O)=O)cc1C(=O)C(C)(C)c1cc(Cl)cc(Cl)c1` , tested on Cathepsin K (Homo sapiens)?
> 100 µM

State its IC50 on Cathepsin K (Homo sapiens): `CC[C@H](C(=O)N[C@H]1CCN(CC(=O)NC/C=C/S(C)(=O)=O)C1=O)c1cc(Cl)cc(Cl)c1`
> 100 µM

Record lookup: for Cathepsin K (Homo sapiens), what IC50 belongs to `COc1ccc(C(=O)NCc2ccnc(C#N)n2)cc1C(=O)C(C)(C)c1cc(Cl)cc(Cl)c1` ?
9.5 µM
